Target: UniProtKB P13569
Sequence (P13569 with tags, fused parts or gaps DEL508-508): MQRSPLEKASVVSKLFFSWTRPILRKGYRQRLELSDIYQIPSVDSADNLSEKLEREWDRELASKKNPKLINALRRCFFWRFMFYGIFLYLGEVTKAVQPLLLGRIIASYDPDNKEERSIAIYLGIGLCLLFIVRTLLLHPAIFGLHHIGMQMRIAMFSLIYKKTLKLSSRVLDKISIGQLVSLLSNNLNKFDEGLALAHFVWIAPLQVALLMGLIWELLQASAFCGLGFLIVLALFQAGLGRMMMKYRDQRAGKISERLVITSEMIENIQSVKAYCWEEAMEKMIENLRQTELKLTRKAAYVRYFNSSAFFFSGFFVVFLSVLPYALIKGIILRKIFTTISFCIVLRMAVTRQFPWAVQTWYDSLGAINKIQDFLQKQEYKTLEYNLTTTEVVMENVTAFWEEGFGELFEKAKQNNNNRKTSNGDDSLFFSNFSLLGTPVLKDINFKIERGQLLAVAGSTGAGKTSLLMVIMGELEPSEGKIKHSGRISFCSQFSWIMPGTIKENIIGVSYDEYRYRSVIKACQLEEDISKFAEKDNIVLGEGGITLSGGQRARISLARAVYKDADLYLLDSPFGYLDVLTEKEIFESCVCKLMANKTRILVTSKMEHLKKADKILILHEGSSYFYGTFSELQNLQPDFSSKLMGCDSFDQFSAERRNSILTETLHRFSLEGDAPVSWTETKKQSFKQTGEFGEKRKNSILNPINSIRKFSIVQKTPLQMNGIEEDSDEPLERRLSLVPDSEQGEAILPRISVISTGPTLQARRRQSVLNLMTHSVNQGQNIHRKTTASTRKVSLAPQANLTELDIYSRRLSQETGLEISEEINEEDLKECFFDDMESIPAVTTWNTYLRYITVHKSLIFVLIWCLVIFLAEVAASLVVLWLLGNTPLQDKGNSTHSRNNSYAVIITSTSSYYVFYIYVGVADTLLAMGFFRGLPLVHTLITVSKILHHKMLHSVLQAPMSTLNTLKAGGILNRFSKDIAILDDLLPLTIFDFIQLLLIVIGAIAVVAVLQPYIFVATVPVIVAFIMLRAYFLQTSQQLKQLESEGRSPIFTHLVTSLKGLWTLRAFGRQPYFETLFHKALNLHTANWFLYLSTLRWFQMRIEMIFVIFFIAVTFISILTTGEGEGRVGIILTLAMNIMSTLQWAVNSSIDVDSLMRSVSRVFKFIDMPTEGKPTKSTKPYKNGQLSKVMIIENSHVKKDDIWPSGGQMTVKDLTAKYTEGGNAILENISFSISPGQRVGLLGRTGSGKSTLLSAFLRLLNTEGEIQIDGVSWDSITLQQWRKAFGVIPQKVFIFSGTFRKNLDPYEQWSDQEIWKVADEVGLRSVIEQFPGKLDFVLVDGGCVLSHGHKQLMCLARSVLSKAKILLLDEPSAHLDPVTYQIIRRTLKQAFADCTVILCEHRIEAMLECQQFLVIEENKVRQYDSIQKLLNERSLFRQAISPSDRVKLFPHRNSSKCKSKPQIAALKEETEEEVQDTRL
Assay: Membrane Potential Dye, Enteroid Assay B
Assay type: cell-based
Settings: read-out: Ent. B EC50
Procedure: Base medium (ADF+++) consisted of Advanced DMEM/Ham's F12, 2 mM Glutamax, 10 mM HEPES, 1 µg/mL penicillin/streptomycin. […] Enteroid cells were incubated with test compound in IEMM for 18-24 hours at 37° C., 95% humidity and 5% CO2. […] Chloride transport was initiated by addition of Chloride Free Dye Stimulation Solution and the fluorescence signal was read for 15 min. […]
readout kind: EC50

molecule	reading
Cc1cccc(C)c1-c1nc2nc(c1C#N)OC[C@@H](CC(C)C)N(C1CC3(CC3)C1)C(=O)c1cccc(c1)S(=O)(=O)N2 [Compound 174]	< 1000 nM

Could I get EC50 for every one of these entries?
1. Cc1cccc(C)c1-c1nc2nc(c1C)OC[C@@H](CC1(C(F)(F)F)CC1)N(C1CC3(CC(NC(=O)OC(C)(C)C)C3)C1)C(=O)c1cccc(c1)S(=O)(=O)N2 (stereo in doubt) [Compound 97]
2. Cc1cccc(C)c1-c1nc2nc(c1C)OC[C@@H](CC1(C(F)(F)F)CC1)N(C1CC3(CC(N)C3)C1)C(=O)c1cccc(c1)S(=O)(=O)N2 (stereo partly drawn) [Compound 93]
3. COC1CC(N2C(=O)c3cccc(c3)S(=O)(=O)Nc3nc(c(C)c(-c4c(C)cccc4C)n3)OC[C@H]2CC(C)(C)C)C1 (stereo partly drawn) [Compound 84]
4. Cc1cccc(C)c1-c1nc2nc(c1C)OC[C@@H](CCC(C)(C)O)N(C1CC3(CC3)C1)C(=O)c1cccc(c1)S(=O)(=O)N2 [Compound 106]

Response:
< 1000 nM
< 1000 nM
< 1000 nM
1000 to 3000 nM

Prompt: # EC50 lookup, item Cc1cccc(C)c1-c1nc2nc(c1C)O[C@@H]1CN(C3CC4(CCCCC4)C3)C[C@H]1NC(=O)c1cccc(c1)S(=O)(=O)N2 [Compound 104]
Response: < 1000 nM
